System: human skin
assayProcedure: Skin irritation test of active ingredient (patch method, CTFA guidelines)
Assay type: in vivo
conditionsUsed: content 0.5%; Equation 1
Method: A total of 20 people (10 men and 10 women in their 20s and 30s) were tested for skin irritation using the patch method according to the guidelines of CTFA (The Cosmetic, Toiletry & Fragrance Association, Inc. Washington, D.C.). […] After 24 hours, the pin chamber was removed, and skin conditions were visually observed. The degree and grade for skin irritation were calculated according to the following Equation 1, and the results are shown in Table 3 below. […]
Give measured Degree of irritation for each item. Keep answers brief.
Please give the numeric answer without any surrounding text.

Fill in: Degree of irritation of "O=C(O)c1cncc(N2CCN(c3cncc(C(=O)O)c3)CCN(c3cncc(C(=O)O)c3)CCN(c3cncc(C(=O)O)c3)CC2)c1" is ___ 0

Also check NCCNCCNCCN [Trientine, Triethylenetetramine, reference compound] 0.05

Also check "O=C(O)c1ccc(N(CCN(CCN(c2ccc(C(=O)O)cc2)c2ccc(C(=O)O)cc2)c2ccc(C(=O)O)cc2)CCN(c2ccc(C(=O)O)cc2)c2ccc(C(=O)O)cc2)cc1" 0

Also check "C1CNCCNCCNCCN1" 0

Also check "O=C(O)c1ccc(N2CCN(c3ccc(C(=O)O)cc3)CCN(c3ccc(C(=O)O)cc3)CCN(c3ccc(C(=O)O)cc3)CC2)cc1" 0

Also check "O=C(O)CN(CCN(CCN(CC(=O)O)CC(=O)O)CC(=O)O)CCN(CC(=O)O)CC(=O)O" 0.05

Also check "O=C(O)c1ccc(N2CCCN(c3ccc(C(=O)O)cc3)CCN(c3ccc(C(=O)O)cc3)CCCN(c3ccc(C(=O)O)cc3)CC2)cc1" 0

* * *

Test system: human skin
assayProcedure: Skin irritation test of active ingredient (patch method, CTFA guidelines)
Type: in vivo
conditionsUsed: content 1.0%; 20 subjects; 24 hours patch; no erythema or symptoms
valueKind: Test result (number of subject) (−)

What Test result (number of subject) (−) appears in the records for this compound with human skin? O=C(O)c1ccc(N(CCN(CCN(c2ccc(C(=O)O)o2)c2ccc(C(=O)O)o2)c2ccc(C(=O)O)o2)CCN(c2ccc(C(=O)O)o2)c2ccc(C(=O)O)o2)o1 [Embodiment 4] 19

Also check O=C(O)c1cncc(N2CCN(c3cncc(C(=O)O)c3)CCN(c3cncc(C(=O)O)c3)CCN(c3cncc(C(=O)O)c3)CC2)c1 [Embodiment 7] 20

Also check O=C(O)c1ccc(N2CCCN(c3ccc(C(=O)O)cc3)CCN(c3ccc(C(=O)O)cc3)CCCN(c3ccc(C(=O)O)cc3)CC2)cc1 [Embodiment 10] 19

Also check O=C(O)CN(CCN(CCN(CC(=O)O)CC(=O)O)CC(=O)O)CCN(CC(=O)O)CC(=O)O [Embodiment 1] 16

Also check O=C(O)c1ccc(N(CCN(CCN(c2ccc(C(=O)O)cc2)c2ccc(C(=O)O)cc2)c2ccc(C(=O)O)cc2)CCN(c2ccc(C(=O)O)cc2)c2ccc(C(=O)O)cc2)cc1 [Embodiment 2] 19

Also check O=C(O)CN1CCN(CC(=O)O)CCN(CC(=O)O)CCN(CC(=O)O)CC1 [Embodiment 5] 19

Also check NCCNCCNCCN [Trientine, Triethylenetetramine, reference compound] 17

Also check O=C(O)CN1CCCN(CC(=O)O)CCN(CC(=O)O)CCCN(CC(=O)O)CC1 [Embodiment 9] 18

Also check O=C(O)c1ccc(N2CCCN(c3ccc(C(=O)O)o3)CCN(c3ccc(C(=O)O)o3)CCCN(c3ccc(C(=O)O)o3)CC2)o1 [Embodiment 12] 19

Also check O=C(O)c1cncc(N2CCCN(c3cncc(C(=O)O)c3)CCN(c3cncc(C(=O)O)c3)CCCN(c3cncc(C(=O)O)c3)CC2)c1 [Embodiment 11] 18

Also check C1CNCCNCCNCCN1 [Cyclen, 1,4,7,10-tetraazacyclododecane] 18

Also check O=C(O)c1ccc(N2CCN(c3ccc(C(=O)O)o3)CCN(c3ccc(C(=O)O)o3)CCN(c3ccc(C(=O)O)o3)CC2)o1 [Embodiment 8] 18

Also check O=C(O)c1ccc(N2CCN(c3ccc(C(=O)O)cc3)CCN(c3ccc(C(=O)O)cc3)CCN(c3ccc(C(=O)O)cc3)CC2)cc1 [Embodiment 6] 19

* * *

Tested on: human skin
assayProcedure: Skin irritation test of active ingredient (patch method, CTFA guidelines)
Assay type: in vivo
conditionsUsed: content 0.5%; 20 subjects; 24 hours patch; slightly reddish
Procedure: A total of 20 people (10 men and 10 women in their 20s and 30s) were tested for skin irritation using the patch method according to the guidelines of CTFA (The Cosmetic, Toiletry & Fragrance Association, Inc. Washington, D.C.). […] After 24 hours, the pin chamber was removed, and skin conditions were visually observed. The degree and grade for skin irritation were calculated according to the following Equation 1, and the results are shown in Table 3 below. […]
valueKind: Test result (number of subject) (±)
Please give the numeric answer without any surrounding text.

Fill in: Test result (number of subject) (±) of "O=C(O)c1ccc(N2CCN(c3ccc(C(=O)O)o3)CCN(c3ccc(C(=O)O)o3)CCN(c3ccc(C(=O)O)o3)CC2)o1" is ___ 0

Also check "O=C(O)c1ccc(N2CCCN(c3ccc(C(=O)O)cc3)CCN(c3ccc(C(=O)O)cc3)CCCN(c3ccc(C(=O)O)cc3)CC2)cc1" 0

Also check "O=C(O)c1ccc(N(CCN(CCN(c2ccc(C(=O)O)cc2)c2ccc(C(=O)O)cc2)c2ccc(C(=O)O)cc2)CCN(c2ccc(C(=O)O)cc2)c2ccc(C(=O)O)cc2)cc1" 0

Also check NCCNCCNCCN [Trientine, Triethylenetetramine, reference compound] 1

Also check "O=C(O)CN1CCN(CC(=O)O)CCN(CC(=O)O)CCN(CC(=O)O)CC1" 0

Also check "O=C(O)c1cncc(N2CCCN(c3cncc(C(=O)O)c3)CCN(c3cncc(C(=O)O)c3)CCCN(c3cncc(C(=O)O)c3)CC2)c1" 0

Also check "O=C(O)CN(CCN(CCN(CC(=O)O)CC(=O)O)CC(=O)O)CCN(CC(=O)O)CC(=O)O" 1

Also check "O=C(O)c1cncc(N2CCN(c3cncc(C(=O)O)c3)CCN(c3cncc(C(=O)O)c3)CCN(c3cncc(C(=O)O)c3)CC2)c1" 0

Also check "C1CNCCNCCNCCN1" 0

Also check "O=C(O)c1ccc(N2CCN(c3ccc(C(=O)O)cc3)CCN(c3ccc(C(=O)O)cc3)CCN(c3ccc(C(=O)O)cc3)CC2)cc1" 0

Also check "O=C(O)c1ccc(N2CCCN(c3ccc(C(=O)O)o3)CCN(c3ccc(C(=O)O)o3)CCCN(c3ccc(C(=O)O)o3)CC2)o1" 0

Also check "O=C(O)c1ccc(N(CCN(CCN(c2ccc(C(=O)O)o2)c2ccc(C(=O)O)o2)c2ccc(C(=O)O)o2)CCN(c2ccc(C(=O)O)o2)c2ccc(C(=O)O)o2)o1" 0

Also check "O=C(O)CN1CCCN(CC(=O)O)CCN(CC(=O)O)CCCN(CC(=O)O)CC1" 0

* * *

Give measured Test result (number of subject) (+) for each item. Keep answers brief.
Test system: human skin
assayProcedure: Skin irritation test of active ingredient (patch method, CTFA guidelines)
Type: in vivo
conditionsUsed: content 1.0%; 20 subjects; 24 hours patch; apparent reddening
Please give the numeric answer without any surrounding text.

Fill in: Test result (number of subject) (+) of "O=C(O)c1ccc(N2CCN(c3ccc(C(=O)O)cc3)CCN(c3ccc(C(=O)O)cc3)CCN(c3ccc(C(=O)O)cc3)CC2)cc1" is ___ 0

Also check "O=C(O)c1ccc(N2CCN(c3ccc(C(=O)O)o3)CCN(c3ccc(C(=O)O)o3)CCN(c3ccc(C(=O)O)o3)CC2)o1" 0

Also check "O=C(O)CN1CCN(CC(=O)O)CCN(CC(=O)O)CCN(CC(=O)O)CC1" 0

Also check "C1CNCCNCCNCCN1" 1

* * *

Tested on: human skin
assayProcedure: Skin irritation test of active ingredient (patch method, CTFA guidelines)
Type: in vivo
conditionsUsed: content 0.5%; 20 subjects; 24 hours patch; no erythema or symptoms
valueKind: Test result (number of subject) (−)
Please give the numeric answer without any surrounding text.

Fill in: Test result (number of subject) (−) of O=C(O)c1ccc(N2CCN(c3ccc(C(=O)O)o3)CCN(c3ccc(C(=O)O)o3)CCN(c3ccc(C(=O)O)o3)CC2)o1 [Embodiment 8] is ___ 20

Also check C1CNCCNCCNCCN1 [Cyclen, 1,4,7,10-tetraazacyclododecane] 20

Also check O=C(O)c1ccc(N(CCN(CCN(c2ccc(C(=O)O)o2)c2ccc(C(=O)O)o2)c2ccc(C(=O)O)o2)CCN(c2ccc(C(=O)O)o2)c2ccc(C(=O)O)o2)o1 [Embodiment 4] 20

Also check O=C(O)c1ccc(N2CCCN(c3ccc(C(=O)O)cc3)CCN(c3ccc(C(=O)O)cc3)CCCN(c3ccc(C(=O)O)cc3)CC2)cc1 [Embodiment 10] 20

Also check NCCNCCNCCN [Trientine, Triethylenetetramine, reference compound] 19

Also check O=C(O)c1ccc(N(CCN(CCN(c2ccc(C(=O)O)cc2)c2ccc(C(=O)O)cc2)c2ccc(C(=O)O)cc2)CCN(c2ccc(C(=O)O)cc2)c2ccc(C(=O)O)cc2)cc1 [Embodiment 2] 20

Also check O=C(O)c1cncc(N2CCCN(c3cncc(C(=O)O)c3)CCN(c3cncc(C(=O)O)c3)CCCN(c3cncc(C(=O)O)c3)CC2)c1 [Embodiment 11] 20

Also check O=C(O)c1cncc(N2CCN(c3cncc(C(=O)O)c3)CCN(c3cncc(C(=O)O)c3)CCN(c3cncc(C(=O)O)c3)CC2)c1 [Embodiment 7] 20

Also check O=C(O)c1ccc(N2CCN(c3ccc(C(=O)O)cc3)CCN(c3ccc(C(=O)O)cc3)CCN(c3ccc(C(=O)O)cc3)CC2)cc1 [Embodiment 6] 20

Also check O=C(O)CN1CCN(CC(=O)O)CCN(CC(=O)O)CCN(CC(=O)O)CC1 [Embodiment 5] 20

Also check O=C(O)CN1CCCN(CC(=O)O)CCN(CC(=O)O)CCCN(CC(=O)O)CC1 [Embodiment 9] 20

Also check O=C(O)c1ccc(N2CCCN(c3ccc(C(=O)O)o3)CCN(c3ccc(C(=O)O)o3)CCCN(c3ccc(C(=O)O)o3)CC2)o1 [Embodiment 12] 20

Also check O=C(O)CN(CCN(CCN(CC(=O)O)CC(=O)O)CC(=O)O)CCN(CC(=O)O)CC(=O)O [Embodiment 1] 19
